- target: SARS-CoV-2 3-chymotrypsin-like protease (3CL^pro) (Severe acute respiratory syndrome coronavirus 2)
- Type: biochemical
- conditions: supplementary csv; read-out: 3CLpro
measure name: pIC50
The meaning of pIC50 here: minus log10 of the concentration in molar units.

What measured pIC50 goes with [Cl-].[O]=[Re+3].[S-]CCN(CC[S-])c1ccccc1 [Compound 9] ?
4.17

----------
- target: SARS-CoV-2 papain-like protease (PL^pro) (Severe acute respiratory syndrome coronavirus 2, UniProt P0DTD1)
pIC50: −log10 of the molar value.
Provide the reported pIC50 of each item.

What measured pIC50 goes with [O]=[Re+3].[S-]CCSCC[S-].[S-]c1ccccc1 [Compound 5] ?
< 4.00

What measured pIC50 goes with CCC[S-].[O]=[Re+3].[S-]CCSCC[S-] [Compound 4] ?
< 4.00

What measured pIC50 goes with [O]=[Re+3].[S-]CCSCC[S-].[S-]c1ccc(-c2ccccc2)cc1 [Compound 6] ?
< 4.00

Provenance of the data: paper PMC9969397
